Target: His-tagged IDO1 human recombinant protein (71182, BPS Biosciences) (human) (UniProt P14902)
Sequence (P14902 2-403 limits assumed): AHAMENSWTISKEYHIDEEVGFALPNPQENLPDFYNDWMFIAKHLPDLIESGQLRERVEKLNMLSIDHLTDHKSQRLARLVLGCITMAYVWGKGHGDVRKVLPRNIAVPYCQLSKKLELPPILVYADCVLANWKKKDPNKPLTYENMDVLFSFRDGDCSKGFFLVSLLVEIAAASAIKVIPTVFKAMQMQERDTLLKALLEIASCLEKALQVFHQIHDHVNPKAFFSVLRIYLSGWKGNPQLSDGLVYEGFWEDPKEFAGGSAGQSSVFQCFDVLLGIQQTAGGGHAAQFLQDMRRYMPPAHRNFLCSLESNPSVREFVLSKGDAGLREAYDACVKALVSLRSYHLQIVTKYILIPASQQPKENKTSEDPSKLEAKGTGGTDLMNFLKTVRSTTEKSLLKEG
Assay: sandwich ELISA: biotinylated macrocycle on NeutrAvidin plate, His-tagged IDO1 titrated, anti-6XHis-AP detection
measure: EC50 (nM)
Give bare numbers, in nM.

binder	EC50 (nM)
WYRAY (all D-amino acids; ring closed by triazole between flanking N-terminal Pra and C-terminal Az4; N-terminal biotin-PEG3) [biotin-PEG3-Cy(wyray)]	25

Please examine the following record next.
Q: Give the measured EC50 of RFFYL (all D-amino acids; ring closed by triazole between flanking N-terminal Pra and C-terminal Az4; N-terminal biotin-PEG3) [biotin-PEG3-Cy(rffyl)] .
Result: 125
